Listing: IC50 of selected compounds
target: DRB4*0101 (Homo sapiens, UniProt P01903+P13762, G164S); experiment: biochemical
Give a bare numeral; the unit µM is implied.

Consider the reported IC50 for these compounds:
CC[C@H](C)[C@H](NC(=O)[C@H](CCSC)NC(=O)[C@H](CC(=O)O)NC(=O)[C@H](CO)NC(=O)[C@H](CCC(=O)O)NC(=O)[C@H](CC(C)C)NC(=O)[C@@H](NC(=O)CNC(=O)[C@H](CC(N)=O)NC(=O)[C@@H](N)CO)C(C)C)C(=O)N[C@H](C(=O)N1CCC[C@H]1C(=O)N[C@@H](CCCCN)C(=O)N[C@@H](CO)C(=O)N[C@@H](CC(C)C)C(=O)O)[C@@H](C)CC [NS1 233-247] | 3.87
CC[C@H](C)[C@H](N)C(=O)NCC(=O)N[C@@H](CCCCN)C(=O)N[C@@H](CCSC)C(=O)N[C@@H](Cc1ccccc1)C(=O)N[C@@H](CCC(=O)O)C(=O)N[C@@H](C)C(=O)N[C@H](C(=O)N[C@@H](C)C(=O)N[C@@H](CCCNC(=N)N)C(=O)NCC(=O)N[C@@H](C)C(=O)N[C@@H](CCCNC(=N)N)C(=O)N[C@@H](CCCNC(=N)N)C(=O)N[C@@H](CCSC)C(=O)O)[C@@H](C)O [Envelope 396-410] | 3.61

Lab note: CC[C@H](C)[C@H](NC(=O)[C@@H](NC(=O)[C@H](CCSC)NC(=O)[C@H](CC(=O)O)NC(=O)[C@H](CO)NC(=O)[C@H](CCC(=O)O)NC(=O)[C@H](CC(C)C)NC(=O)[C@@H](NC(=O)CNC(=O)[C@H](CC(N)=O)NC(=O)[C@H](CO)NC(=O)[C@H](Cc1c[nH]c2ccccc12)NC(=O)[C@H](CC(C)C)NC(=O)[C@@H](NC(=O)[C@@H](N)Cc1c[nH]cn1)[C@@H](C)O)C(C)C)[C@@H](C)CC)C(=O)O [NS1 229-243] gave IC50 of 8.08

---

target: DRB1*0701 (Homo sapiens, UniProt P01903+P01911, A100R/A102G/A103Q/D57E/D86V/E43K/F76Y/K127E/L162R/M171V/P40G/Q125H/Q99D/R33Q/R42Y/R54Q/S133A/S66F/T210M/V115G/Y107V/Y59L/Y89S); assay: biochemical
Quantity: IC50 (nM)
Lab book: enter the figure in nM, no units written.

Known IC50 results, listed for orientation:
CC[C@H](C)[C@H](NC(=O)[C@H](C)NC(=O)[C@H](C)NC(=O)[C@H](C)NC(=O)[C@@H](N)CCC(=O)O)C(=O)N[C@@H](Cc1ccccc1)C(=O)N[C@@H](CCSC)C(=O)N[C@H](C(=O)N[C@@H](C)C(=O)N[C@H](C(=O)N1CCC[C@H]1C(=O)N1CCC[C@H]1C(=O)NCC(=O)N[C@H](C(=O)N[C@@H](C)C(=O)O)[C@@H](C)O)[C@@H](C)O)[C@@H](C)O [NS3 309-323] | 48
CC(C)C[C@H](NC(=O)[C@H](CCCNC(=N)N)NC(=O)[C@H](Cc1c[nH]cn1)NC(=O)[C@H](CC(=O)O)NC(=O)[C@H](CS)NC(=O)[C@H](CC(C)C)NC(=O)[C@H](CCC(N)=O)NC(=O)[C@@H](NC(=O)[C@H](Cc1ccc(O)cc1)NC(=O)[C@@H](NC(=O)[C@H](CCC(=O)O)NC(=O)[C@H](CCCNC(=N)N)NC(=O)[C@H](CC(C)C)NC(=O)[C@H](CCCCN)NC(=O)[C@@H](N)CC(C)C)C(C)C)[C@@H](C)O)C(=O)O [NS1 169-183] | 136

Lab note: measured IC50 of CC[C@H](C)[C@H](NC(=O)[C@@H](N)CCCCN)C(=O)N1CCC[C@H]1C(=O)NCC(=O)NCC(=O)N[C@@H](C)C(=O)N[C@@H](CCSC)C(=O)N[C@@H](Cc1ccc(O)cc1)C(=O)N[C@@H](C)C(=O)N[C@@H](CC(=O)O)C(=O)N[C@@H](CC(=O)O)C(=O)N[C@H](C(=O)N[C@@H](C)C(=O)NCC(=O)N[C@@H](Cc1c[nH]c2ccccc12)C(=O)N[C@@H](CC(=O)O)C(=O)N[C@H](C(=O)O)[C@@H](C)O)[C@@H](C)O [NS5 523-539] was 6560
